molecular target: human central type cannabinoid receptor (hCB1) (Homo sapiens, UniProt P21554); construct: expressed in transfected cells; host or cells: CHO cells; assay: Binding assay (in vitro), [3H]Win55212-2 displacement, membrane fractions of human CB1-CHO; settings: Ki value Central type receptor (C), hCB1 expressed in CHO cells, [3H]Win55212-2 2 nM, 30° C. 90 minutes
Sequence (P21554 whole entry): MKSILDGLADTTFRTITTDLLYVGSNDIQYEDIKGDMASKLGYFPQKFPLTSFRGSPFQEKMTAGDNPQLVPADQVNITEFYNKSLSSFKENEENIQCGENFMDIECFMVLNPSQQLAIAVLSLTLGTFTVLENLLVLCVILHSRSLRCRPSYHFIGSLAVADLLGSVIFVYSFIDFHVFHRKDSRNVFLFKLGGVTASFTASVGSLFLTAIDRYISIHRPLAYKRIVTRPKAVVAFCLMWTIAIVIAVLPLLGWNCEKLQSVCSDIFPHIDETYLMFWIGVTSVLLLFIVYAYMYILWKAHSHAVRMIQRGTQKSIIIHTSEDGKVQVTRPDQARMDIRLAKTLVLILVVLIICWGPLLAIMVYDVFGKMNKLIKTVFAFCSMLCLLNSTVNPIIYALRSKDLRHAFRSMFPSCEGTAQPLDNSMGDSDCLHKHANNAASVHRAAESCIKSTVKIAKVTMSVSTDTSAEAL
Listing: pKi of selected compounds
# reply with the number alone; pKi is -log10 of concentration in mol/L

CCCCCOc1c(OC)ccc2cc(C(=O)NCCc3cccc(F)c3)c(=O)[nH]c12 7.11
CCCCCOc1c(OC)ccc2cc(C(=O)NCCc3ccncc3)c(=O)n(C)c12 7.11
CCCCCOc1c(OC)ccc2cc(C(=O)NCCc3ccc(Cl)cc3)c(=O)[nH]c12 6.87
CCCCCOc1c(OC)ccc2cc(C(=O)NCCc3ccc(F)cc3)c(=O)[nH]c12 7.09
CCCCCOc1c(OC)ccc2cc(C(=O)NCCc3ccc(O)cc3)c(=O)n(C)c12 7.21

Please look at the following compound next.
Measured pKi (human central type cannabinoid receptor (hCB1) (Homo sapiens, UniProt P21554)), entry CCCCCOc1c(OC)ccc2cc(C(=O)NCCc3ccc(O)cc3)c(=O)[nH]c12 : 7.14
